Each entry below carries its recorded Ki.
Molecular target: HIS-PDZ1-2 protein (PSD-95 PDZ1-2 tandem, residues 61-249, with tag …) (human, UniProt P78352 61-249)
Assay: FP competition, fluorescent NR2B probe
Square brackets hold non-standard residues; d marks the D form. Ends that are not written are not given here. PEG4‑diacid = 4,7,10,13,16-pentaoxanonadecane-1,19-dioic acid; NMeA = CN[C@@H](C)C(=O)O
Record the value in nM, omitting the unit from your answer.

Consider the worked cases shown below.
>  <binder>
IATAV (also: dimer: two peptides joined at N-terminal amines by amide bonds through a PEG4-diacid linker, Dimeric ligand) [(IATAV)2PEG4 (88)]

>  <quantity>
Ki

>  <meas value>
1100

$$$$
>  <binder>
IAT[NMeA]V [IATAMeV (89)]

>  <quantity>
Ki

>  <meas value>
142000

$$$$
>  <binder>
ESDV (also: dimer: two peptides joined at N-terminal amines by amide bonds through a PEG8-diacid linker, Dimeric ligand) [Compound 85 (ESDV dimerized with PEG8)]

>  <quantity>
Ki

>  <meas value>
1000

$$$$
>  <binder>
{PEG4‑diacid}-IAT[NMeA]V-OH (also: dimer: two peptides N-terminally joined via PEG4-diacid, Dimeric ligand) [(IATAMeV)2PEG4 (90)]

>  <quantity>
Ki

>  <meas value>
13000

$$$$
>  <binder>
IATAV (also: dimer: two peptides joined at N-terminal amines by amide bonds through a PEG12-diacid linker, Dimeric ligand) [(IATAV)2PEG12 (87)]

>  <quantity>
Ki

>  <meas value>
1000

$$$$
>  <binder>
{PEG1‑diacid}-IESDV (also: dimer: two peptides N-terminally joined via PEG1-diacid, Dimeric ligand) [Compound 80 (IESDV dimerized with PEG1-diacid)]

>  <quantity>
Ki

>  <meas value>
560

$$$$
>  <binder>
ESDV (also: dimer: two peptides joined at N-terminal amines by amide bonds through a PEG12-diacid linker, Dimeric ligand) [Compound 84 (ESDV dimerized with PEG12)]

>  <quantity>
Ki

>  <meas value>
920

$$$$
>  <binder>
{PEG2‑diacid}-IESDV (also: dimer: two peptides N-terminally joined via PEG2-diacid, Dimeric ligand) [Compound 79 (IESDV dimerized with PEG2-diacid)]

>  <quantity>
Ki

>  <meas value>
270

$$$$

Record {PEG0‑diacid}-IESDV (also: dimer: two peptides N-terminally joined via PEG0-diacid, Dimeric ligand) [Compound 81 (IESDV dimerized with PEG0-diacid)] . Reported Ki: 1500

Cited source: patent US20160176924A1
